Sourced from the kinase profiling compilation of Christmann-Franck et al. (2016)

Biological target: HIPK4 (human) (UniProt Q8NE63)
Sequence (Q8NE63 whole entry, looked up): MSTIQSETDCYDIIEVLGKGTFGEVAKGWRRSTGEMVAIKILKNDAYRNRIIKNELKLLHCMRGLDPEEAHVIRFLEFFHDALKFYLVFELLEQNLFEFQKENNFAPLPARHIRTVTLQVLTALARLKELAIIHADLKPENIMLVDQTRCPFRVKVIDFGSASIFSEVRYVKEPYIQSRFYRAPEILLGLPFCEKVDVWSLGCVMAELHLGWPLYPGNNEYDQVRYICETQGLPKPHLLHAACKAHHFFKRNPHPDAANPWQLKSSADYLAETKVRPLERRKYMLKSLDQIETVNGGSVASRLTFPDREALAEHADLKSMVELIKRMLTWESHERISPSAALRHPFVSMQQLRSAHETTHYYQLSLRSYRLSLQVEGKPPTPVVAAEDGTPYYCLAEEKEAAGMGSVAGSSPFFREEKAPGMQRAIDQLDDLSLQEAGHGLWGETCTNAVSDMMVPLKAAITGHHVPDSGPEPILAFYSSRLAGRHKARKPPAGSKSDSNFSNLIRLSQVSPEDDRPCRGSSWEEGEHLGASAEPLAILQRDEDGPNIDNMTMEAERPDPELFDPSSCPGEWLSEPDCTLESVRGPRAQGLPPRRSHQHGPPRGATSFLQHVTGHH
Assay: KINOMEscan competition binding
Conditions: compound 10.0 µM
Please respond with t when measured kinase still bound, per cent of control is strictly beneath 9%, and with f in all other cases.

Answered examples (7):
Would you kindly verify if kinase still bound, per cent of control of "COc1cc(N2CCN(C)CC2)ccc1Nc1ncc2c(n1)N(C)c1ccccc1C(=O)N2C" is strictly less than 9%?
f

Would you kindly verify if kinase still bound, per cent of control of "CCN(CC)CCCCNc1ncc2c(n1)N(C)C(=O)N(c1c(Cl)c(OC)cc(OC)c1Cl)C2" is strictly less than 9%?
f

Would you kindly verify if kinase still bound, per cent of control of "COCC(=O)NC/C=C/c1ccc2ncnc(Nc3ccc(Oc4ccc(C)nc4)c(C)c3)c2c1" is strictly less than 9%?
f

Would you kindly verify if kinase still bound, per cent of control of "COc1cc2ncnc(-n3nc(-c4ccccn4)nc3N)c2cc1OC" is strictly less than 9%?
t

Would you kindly verify if kinase still bound, per cent of control of "CS(=O)(=O)N1CCN(Cc2cc3nc(-c4cccc5[nH]ncc45)nc(N4CCOCC4)c3s2)CC1" is strictly less than 9%?
f

Would you kindly verify if kinase still bound, per cent of control of "COc1cc(C(=O)N2CCC(N3CCN(C)CC3)CC2)ccc1Nc1ncc2c(n1)N(C)c1ccccc1C(=O)N2C" is strictly less than 9%?
f

Would you kindly verify if kinase still bound, per cent of control of "O=C1NC(=O)/C(=C/c2ccc3nccc(-c4ccncc4)c3c2)S1" is strictly less than 9%?
t

Shifting focus to the molecule that follows.
Would you kindly verify if kinase still bound, per cent of control of "CN(C)C/C=C/C(=O)Nc1ccc(C(=O)Nc2cccc(Nc3nccc(-c4cccnc4)n3)c2)cc1" is strictly less than 9%?
t
